Biological target: human TLR8 (Homo sapiens)
Sequence (Q9NR97 27-1041): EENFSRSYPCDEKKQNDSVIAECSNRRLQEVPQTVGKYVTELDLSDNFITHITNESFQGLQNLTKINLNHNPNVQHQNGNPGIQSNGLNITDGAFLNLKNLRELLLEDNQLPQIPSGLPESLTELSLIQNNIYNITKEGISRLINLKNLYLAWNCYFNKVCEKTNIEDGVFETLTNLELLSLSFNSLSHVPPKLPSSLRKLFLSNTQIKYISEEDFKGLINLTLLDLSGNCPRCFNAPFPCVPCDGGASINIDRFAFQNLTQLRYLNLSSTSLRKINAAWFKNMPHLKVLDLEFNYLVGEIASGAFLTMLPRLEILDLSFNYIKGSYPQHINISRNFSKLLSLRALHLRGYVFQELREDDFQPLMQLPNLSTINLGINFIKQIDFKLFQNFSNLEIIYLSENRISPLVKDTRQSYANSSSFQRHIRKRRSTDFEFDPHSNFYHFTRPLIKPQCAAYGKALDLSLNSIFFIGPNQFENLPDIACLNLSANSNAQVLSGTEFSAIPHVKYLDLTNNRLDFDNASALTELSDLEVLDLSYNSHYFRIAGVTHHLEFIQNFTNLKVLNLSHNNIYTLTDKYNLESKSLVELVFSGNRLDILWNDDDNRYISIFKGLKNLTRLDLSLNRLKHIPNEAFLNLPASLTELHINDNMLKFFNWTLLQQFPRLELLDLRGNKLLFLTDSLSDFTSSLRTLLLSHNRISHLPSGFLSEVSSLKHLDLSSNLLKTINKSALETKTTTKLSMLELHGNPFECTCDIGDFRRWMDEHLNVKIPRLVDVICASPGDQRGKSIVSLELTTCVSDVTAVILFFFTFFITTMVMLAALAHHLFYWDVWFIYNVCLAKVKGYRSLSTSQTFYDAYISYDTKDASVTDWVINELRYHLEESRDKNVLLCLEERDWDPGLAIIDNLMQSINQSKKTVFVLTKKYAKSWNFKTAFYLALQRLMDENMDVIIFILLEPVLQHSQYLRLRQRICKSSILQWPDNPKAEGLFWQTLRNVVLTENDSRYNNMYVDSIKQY
Test: HEK293-Blue-hTLR-8 cells assay (SEAP reporter, R848 stimulation)
Conditions: HEK293-Blue-hTLR8 cells, R848, 20 hrs; read-out: HEK/hTLR8 IC50
pIC50: −log10 of the molar value.
Param threshold (8) applies to pIC50; output 1.0 when value >= threshold, 0.0 when value < threshold.

>>> class_name("C[C@@H]1CN(c2ccc(C#N)c3ncccc23)C[C@H](CN2CC3(C2)CN(c2ncc4c(n2)CCNC4)CCO3)O1 [Example 51]")
1.0
>>> class_name("C[C@@H]1CN(c2ccc(C#N)c3nccnc23)C[C@H](CN2CCN(c3cc4c(cn3)CCN[C@@H]4C)CC2)O1 (single isomer, unassigned) [Example 87]")
1.0
>>> class_name("C[C@@H]1CN(c2ccc(C#N)c3ncccc23)C[C@H](CN2CCN(c3cnc4c(c3)CNC4)CC2)O1 [Example 10]")
0.0
>>> class_name("C[C@@H]1CN(c2ccc(C#N)c3ncccc23)C[C@H](CN2CCN(c3cnc4c(c3)CN[C@H]4C)CC2)O1 (single isomer, unassigned) [Example 67]")
0.0

Next, consider the following compound.
Threshold query (pIC50 >= 8) on C[C@@H]1CN(c2ccc(C#N)c3nccnc23)C[C@H](CN2CCN(c3cc4c(cn3)[C@H](C)NCC4)CC2)O1 (single isomer, unassigned) [Example 85] 1.0

These measurements were taken from patent EP3807270B1.
